Every entry's value here was drawn from PubChem BioAssay.

Assay: basal S. cerevisiae growth modulation, no modifier, primary screen, OD600, strain BY4716, 24 h, basal condition (AID 1173)
Conditions: OD600, 24 h, higher = more signal, called active from +8 up or from −8 down
Think of -0.7 as a floor: if z-score stands on it or above, it is T; beneath it, F.

compound=COc1cccc(C[C@H]2C[C@@H](CO[Si](C(C)C)(C(C)C)C(C)C)N3C(=O)[C@@]4(C(C)=O)O[C@@]23[C@@H]2C(=O)N(C)C(=O)[C@@H]24)c1 assigned_label=T
compound="C=CCC(OC(C)=O)[C@@H]1[C@@H](N(Cc2ccc(-c3ccccc3)cc2)C(=O)c2ccc(C)cc2)c2cc(OCCCO)ccc2N1C(=O)c1ccc2ccccc2c1 (stereo partly drawn)" assigned_label=F
compound=C=CCNC(=O)[C@@H]1[C@H]2C(=O)O[C@H](c3ccccc3)[C@H](c3ccccc3)N2[C@H](c2ccccc2OCCO)[C@@]12C(=O)N(C(=O)OCCOC)c1ccc(C#CCCO)cc12 assigned_label=T
compound=C=CCOC(=O)[C@H]1[C@@H]2C(=O)O[C@@H](c3ccccc3)[C@@H](c3ccccc3)N2[C@@H](c2ccc(OCCOC(=O)[C@@H]3C[C@@H]4C(=O)N[C@@H](Cc5ccccc5)C(=O)N4[C@@H]3c3ccc(O)cc3)cc2)[C@]12C(=O)Nc1ccccc12 assigned_label=T
compound=N[C@@H](Cc1ccccc1)Cn1cc(C2(O)CCCCC2)nn1 assigned_label=T
compound=CC(C)(C)OC(=O)CC[C@]1(C(=O)N2CCOCC2)N=C(c2ccc(OCCCO)cc2)O[C@H]1c1ccccc1CN=[N+]=[N-] assigned_label=T
compound="COc1ccc(C(O)C2C=CC3C(=O)N(C)C(=O)C3N2Nc2ccc([N+](=O)[O-])cc2[N+](=O)[O-])cc1OCc1ccccc1 (stereo not drawn)" assigned_label=T
compound=COC(=O)[C@]1(CO)N=C(c2ccc(OCCCO)cc2)O[C@@H]1c1ccccc1CN=[N+]=[N-] assigned_label=T
compound="O=C1C2C=CC(C(O)C(c3ccccc3)c3ccccc3)N(Nc3ccccc3)C2C(=O)N1c1ccccc1 (stereo not drawn)" assigned_label=T
compound="O=C1OCCC/C=C\\[C@H]2OC34C=CCN(Cc5ccccc5)C(=O)[C@H]3N(CCCCCO)C(=O)[C@@H]4C12 (stereo partly drawn)" assigned_label=F
compound=COCCOC(=O)N1C(=O)[C@@]2(c3cc(C#CCNC(N)=O)ccc31)[C@H](C(=O)NC[C@H](O)c1ccccc1)[C@H]1C(=O)O[C@H](c3ccccc3)[C@H](c3ccccc3)N1[C@@H]2c1ccc(OCCO)cc1 assigned_label=T
compound=CN(C)CCCNC(=O)[C@@H]1c2ccccc2C(=O)N(C2Cc3ccccc3C2)[C@H]1c1ccc(CO)cc1 assigned_label=F
compound="CC(=O)n1cc(C(O)C2C=CC3C(=O)N(c4ccccc4)C(=O)C3N2Nc2ccccc2F)c2ccccc21 (stereo not drawn)" assigned_label=F

* * *

Assay: basal 3T3-L1 adipocyte mitochondrial potential changes, profiling panel, cell-based, JC-1 fluorescence, 3T3-L1 adipocytes, 24 h, 100 nL compound (AID 1168); also: test concentration not given here
Conditions: JC-1 mitochondrial fluorescence, higher = more signal, called active from +8 up or from −8 down
The source made the active and inactive calls.
Quantity kind: z-score

compound=COCCCNC(=O)[C@@H]1c2ccccc2C(=O)N(C2CCCCC2)[C@H]1c1ccc(CO)cc1 quantity_kind=z-score measured="-0.154 (inactive)"
compound=CCCCNC(=O)c1ccc(C#C[Si](C)(C)C)c(OC(C)=O)c1 quantity_kind=z-score measured="-0.538 (inactive)"
compound=CCCCC=C[C@@H](NC(=O)c1ccc(C(F)(F)F)cc1)c1ccccc1 quantity_kind=z-score measured="-1.12 (inactive)"
compound="CCN(CC)c1ccc(N2CC=CC34O[C@@H]5C=CCOC(=O)[C@@H]5[C@H]3C(=O)N(CCO)[C@@H]4C2=O)cc1 (stereo partly drawn)" quantity_kind=z-score measured="0.537 (inactive)"
compound=NC(=O)[C@@]1(CCS(=O)(=O)c2ccccc2)COC(c2ccc(OCCCO)cc2)=N1 quantity_kind=z-score measured="-0.762 (inactive)"
compound="COc1ccc(NN2C(C(O)c3cc(C(F)(F)F)cc(C(F)(F)F)c3)C=CC3C(=O)N(C4CCCCC4)C(=O)C32)cc1 (stereo not drawn)" quantity_kind=z-score measured="0.0313 (inactive)"
compound=CCC[C@@H]1C=C(C(=O)OCC)[C@H](c2ccccc2)N1S(=O)(=O)c1ccc(C)cc1 quantity_kind=z-score measured="0.437 (inactive)"
compound=COc1ccc(CCNC(=O)[C@@H]2c3ccccc3C(=O)N(CC34CC5CC(CC(C5)C3)C4)[C@H]2c2ccc(CO)cc2)cc1 quantity_kind=z-score measured="-0.138 (inactive)"

* * *

Experiment: inhibitors of hydroxyurea-induced Chk1 phosphorylation, primary screen, imaging, HeLa, phospho-Chk1 antibody, percent positive cells (AID 1186)
Settings: hydroxyurea-induced phospho-Chk1 immunofluorescence imaging, higher = more signal
Listed compounds paired with reported z-score
Quantity kind: z-score

compound=CN(C)CCCCNC(=O)[C@H]1C[C@H]2C(=O)N[C@@H](Cc3ccccc3)C(=O)N2[C@H]1c1cccc(OCCO)c1 measured=-0.826
compound="C=CCC(OC(C)=O)[C@@H]1[C@@H](N(Cc2ccc(-c3cccc(C(F)(F)F)c3)o2)C(=O)c2cccc3ccccc23)c2cc(OCCCO)ccc2N1C(=O)c1ccc2ccccc2c1 (stereo not given in full)" measured=-0.675
compound="CC(c1ccccc1)C(O)C1C=CC2C(=O)N(c3ccccc3)C(=O)C2N1Nc1ccc(C#N)cc1 (stereo not given)" measured=-0.325
compound="C[C@H]1NC(=O)C([C@@H](C)OCc2ccccc2)NC(=O)[C@@]23C(=O)N[C@@H](Cc4ccccc4)C2[C@H](C)[C@@]2(C)O[C@H]2C3/C=C/C/C=C\\CNC1=O (stereo not given in full)" measured=0.314
compound=COCCOC(=O)N1C(=O)[C@@]2(c3cc(C#CCC(C(=O)OC)C(=O)OC)ccc31)[C@H](c1ccc(OCCO)cc1)N1[C@H](c3ccccc3)[C@H](c3ccccc3)OC(=O)[C@H]1[C@@H]2C(=O)N1CCCCCCC1 measured=-0.181

* * *

System: Plasmodium falciparum Sir2 (PF13_0152, Sir2A)
Test: pfSir2 binders on small-molecule microarrays, primary screen, biochemical, small-molecule microarray, 635 nm fluorescence (AID 1098);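 also: score merges spot fluorescence intensity with its signal-to-noise ratio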
Details: small-molecule microarray binding, fluorescence 635 nm; higher = more signal
Cut-off 1 on composite z-score, inclusive. At or above means Y; below means N.

molecule=C=C(COC)/C(=C/C[C@H](OC(=O)c1ccncc1)c1ccc(OCCO)cc1)c1cc(C(=O)OC)ccc1OC assigned_label=N
molecule="COc1cc2c(cc1O)C(c1ccc(CN3CCCC3)cc1)N(Cc1ccc([N+](=O)[O-])o1)CC2 (centres undefined)" assigned_label=Y
molecule=COC(=O)[C@@]1(Cc2ccccc2)[C@H]2c3cc(C(=O)N4CCCC4)n(Cc4ccc(C(F)(F)F)nc4)c3C[C@H]2CN1C(=O)c1ccccc1 assigned_label=Y
molecule=C=CC[C@@]12N=C(c3ccc(OCCCO)cc3)O[C@@H]1c1ccccc1N(Cc1ccccc1)C2=O assigned_label=Y
molecule=NCCCC[C@@H]1NC(=O)[C@H]2C[C@@H](C(=O)NCc3ccc(F)cc3)[C@@H](c3cccc(OCCO)c3)N2C1=O assigned_label=Y
molecule=COc1ccc(C#Cc2ccc3c(c2)[C@]2(C(=O)N3)[C@H](c3ccc(OCCO)cc3)N3[C@H](c4ccccc4)[C@H](c4ccccc4)OC(=O)[C@H]3[C@@H]2C(=O)O)cc1 assigned_label=N
molecule=CC1(C)OC[C@@]23C=C(Br)[C@@H](C[C@H]12)[C@@]1(CO1)C3=O assigned_label=N
molecule=C=CCOC(=O)[C@H]1[C@@H]2C(=O)O[C@@H](c3ccccc3)[C@@H](c3ccccc3)N2[C@@H](c2ccc(OCCOC(=O)[C@H]3C[C@H]4C(=O)NCC(=O)N4[C@H]3c3ccc(O)cc3)cc2)[C@]12C(=O)Nc1ccc(I)cc12 assigned_label=Y
molecule=COc1ccccc1CN1C(=O)c2ccccc2[C@@H](C(=O)NCCCN(C)C)[C@@H]1c1ccc(CO)cc1 assigned_label=Y
molecule=C=CC[C@@]1(C(=O)N(C)C)N=C(c2ccc(OCCCO)cc2)O[C@@H]1c1ccccc1 assigned_label=Y
molecule=Cc1ccc(S[C@]2(C(=O)NCC(F)(F)F)CC(=O)N(C3CCCCC3)[C@@H]2c2ccc(CO)cc2)cc1 assigned_label=Y
molecule=COCCOC(=O)N1C(=O)[C@@]2(c3cc(C#CCC(C(=O)OC)C(=O)OC)ccc31)[C@H](C(=O)N1CCc3cc(OC)c(OC)cc3C1)[C@H]1C(=O)O[C@H](c3ccccc3)[C@H](c3ccccc3)N1[C@@H]2c1ccc(O)cc1 assigned_label=N

* * *

Test: basal HepG2 mitochondrial membrane potential changes, profiling panel, cell-based, JC-1 fluorescence, 24 h, 100 nL compound (AID 1167); also: test concentration not given here
Settings: higher = more signal
# key: entry, value: z-score
Quantity kind: z-score

molecule=C=C(/C(=C/C[C@H](OC(=O)c1ccncc1)c1ccccc1OCCO)c1cc(C(=O)OC)ccc1OC)C(C)C quantity_kind=z-score measured=0.589
molecule="COC(=O)C1=CC(CCCO)=CC(c2ccc(CN3CCCC3)cc2)N(Cc2sc3ccccc3c2Cl)C=C1C(=O)OC (stereo not drawn)" quantity_kind=z-score measured=4.71
molecule=COC(=O)C(CC#Cc1ccc2c(c1)[C@]1(C(=O)N2)[C@H](c2ccc(O)cc2)N2[C@H](c3ccccc3)[C@H](c3ccccc3)OC(=O)[C@H]2[C@@H]1C(=O)N1CCc2cc(OC)c(OC)cc2C1)C(=O)OC quantity_kind=z-score measured=-2.15
molecule=CCCCCCc1nc(-c2ccc(OC)nc2)cc2c1[Si](C(C)C)(C(C)C)OC2 quantity_kind=z-score measured=-1.91
molecule=NCCCC[C@@H]1NC(=O)[C@H]2C[C@@H](C(=O)NCc3ccc(F)cc3)[C@@H](c3ccc(O)cc3)N2C1=O quantity_kind=z-score measured=-1.64
molecule=C=CCNC(=O)[C@@H]1[C@H]2C(=O)O[C@H](c3ccccc3)[C@H](c3ccccc3)N2[C@H](c2ccc(O)cc2)[C@@]12C(=O)Nc1ccc(C#CC3(O)CCCCCC3)cc12 quantity_kind=z-score measured=-2.28
molecule="COc1cc2c(cc1O)C(c1ccc(CN3CCCC3)cc1)N(Cc1cccc(OC(F)(F)F)c1)CC2 (stereo not drawn)" quantity_kind=z-score measured=-3.43
molecule=COC(=O)[C@@H]1N=C(c2ccc(OCCCO)cc2)O[C@@H]1c1ccccc1CN=[N+]=[N-] quantity_kind=z-score measured=-1.07
molecule="C=CCC(OC(C)=O)[C@@H]1[C@@H](N(Cc2ccc(-c3cccc(C(F)(F)F)c3)o2)C(=O)c2cccc3ccccc23)c2cc(OCCCO)ccc2N1C(=O)c1ccc2ccccc2n1 (stereo partly drawn)" quantity_kind=z-score measured=2.43
molecule=CC(C)(C)OC(=O)CC[C@]1(C(=O)N2CCOCC2)N=C(c2ccc(OCCCO)cc2)O[C@H]1c1ccccc1CN=[N+]=[N-] quantity_kind=z-score measured=0.432
molecule=COc1ccc(CCNC(=O)[C@@]2(Sc3ccc(C)cc3)CC(=O)N(Cc3cc(C(F)(F)F)cc(C(F)(F)F)c3)[C@@H]2c2ccc(CO)cc2)cc1 quantity_kind=z-score measured=0.016
molecule="CC(C)C[C@H]1NC(=O)[C@@]23C(=O)N[C@@H](Cc4ccccc4)C2[C@H](C)[C@@]2(C)O[C@H]2C3/C=C/C/C=C\\CNC(=O)[C@@H]2CCCN2C1=O (stereo partly drawn)" quantity_kind=z-score measured=-0.831
molecule="CC(C)(C)N1CC=CC23O[C@@H]4/C=C\\CCCOC(=O)C4[C@H]2C(=O)N(CCCCCCO)[C@@H]3C1=O (stereo partly drawn)" quantity_kind=z-score measured=1.17
molecule=C=C(COC)/C(=C/C[C@@H](OC(C)=O)c1ccccc1OCCO)c1cc(C(=O)OC)ccc1OC quantity_kind=z-score measured=0.751
molecule=COCCOC(=O)N1C(=O)[C@@]2(c3cc(C#CCCO)ccc31)[C@H](C(=O)N1CCN(c3ncccn3)CC1)[C@H]1C(=O)O[C@H](c3ccccc3)[C@H](c3ccccc3)N1[C@@H]2c1ccc(O)cc1 quantity_kind=z-score measured=-0.141
molecule=COCCOC(=O)N1C(=O)[C@@]2(c3ccccc31)[C@H](c1ccc(OCCO)cc1)N1[C@H](c3ccccc3)[C@H](c3ccccc3)OC(=O)[C@H]1[C@@H]2C(=O)N1CCN(c2ncccn2)CC1 quantity_kind=z-score measured=1.03
molecule=CC(C)C(=C=CC[C@@H](O)c1ccccc1OCCO)C[C@@H](O)c1cc(Cl)cc(Cl)c1O quantity_kind=z-score measured=-2.61
molecule=C=CC[C@@]1(C(=O)N(C)C)N=C(c2ccc(OCCCO)cc2)O[C@@H]1c1ccccc1 quantity_kind=z-score measured=-0.644
molecule=COCCOC(=O)N1C(=O)[C@@]2(c3cc(C#CCNC(N)=O)ccc31)[C@H](C(=O)NC[C@H](O)c1ccccc1)[C@H]1C(=O)O[C@H](c3ccccc3)[C@H](c3ccccc3)N1[C@@H]2c1ccc(OCCO)cc1 quantity_kind=z-score measured=-1.61
molecule=CCOC(=O)C1=CC[C@@H](c2ccccc2)N(S(=O)(=O)C[Si](C)(C)C)[C@H]1c1ccccc1 quantity_kind=z-score measured=-1.37
molecule=CCCCC(=C=CC[C@@H](O)c1cccc(OCCO)c1)CCO quantity_kind=z-score measured=0.416
molecule="CC(C)c1ccc(NN2C(C(O)C(C)C)C=CC3C(=O)N(c4ccccc4)C(=O)C32)cc1 (stereo not drawn)" quantity_kind=z-score measured=-0.419
molecule=COC(=O)[C@@]1(CCC(=O)OC(C)(C)C)N=C(c2ccc(OCCCO)cc2)O[C@H]1c1ccccc1CN=[N+]=[N-] quantity_kind=z-score measured=-1.7
molecule=CC(C)CNC(=O)[C@@H]1c2ccccc2C(=O)N(CC23CC4CC(CC(C4)C2)C3)[C@H]1c1ccc(CO)cc1 quantity_kind=z-score measured=1.38
molecule=CN(C)CCCCNC(=O)[C@H]1C[C@H]2C(=O)N[C@@H](Cc3ccccc3)C(=O)N2[C@H]1c1cccc(OCCO)c1 quantity_kind=z-score measured=0.17
molecule=COc1ccccc1CN1C(=O)c2ccccc2[C@](Cc2ccccc2I)(C(=O)NCCCN(C)C)[C@@H]1c1ccc(CO)cc1 quantity_kind=z-score measured=-3.01
molecule="CN1C(=O)C2C=CC(C(O)c3ccc(-c4ccccc4)s3)N(Nc3ccccc3)C2C1=O (stereo not drawn)" quantity_kind=z-score measured=-1.44
molecule=Cc1ccc(S(=O)(=O)N2[C@@H](c3ccccc3)C(C(=O)O)=CC[C@H]2c2ccc(C#N)cc2)cc1 quantity_kind=z-score measured=-0.556
